- System: GCT (Other Solid Carcinomas)
- Test: Bliss excess, mean over the matrix (fraction); higher = more synergy;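 also: after 72 h of two-drug dosing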
Measured quantity: Bliss excess

compound="Cc1nc(Nc2ncc(C(=O)Nc3c(C)cccc3Cl)s2)cc(N2CCN(CCO)CC2)n1 [Dasatinib] + CC(=O)Nc1cccc(-n2c(=O)n(C3CC3)c(=O)c3c(Nc4ccc(I)cc4F)n(C)c(=O)c(C)c32)c1 [Trametinib] (first compound max 2 µM, 7x7, partner max 1 µM)" numeric_result=-0.119
compound="COc1nnc2ccc(N3CCC(c4ccc(OCCN5CCN(C)C(=O)[C@H]5C)cc4)CC3)nn12 [AZD5153] + Cn1cnc2c(F)c(Nc3ccc(Br)cc3Cl)c(C(=O)NOCCO)cc21 [Selumetinib] (first compound max 1 µM, 7x7, partner max 10 µM)" numeric_result=-0.0506
compound="COc1nnc2ccc(N3CCC(c4ccc(OCCN5CCN(C)C(=O)[C@H]5C)cc4)CC3)nn12 [AZD5153] + C[C@@H]1COCCN1C2=NC(=NC(=C2)C3(CC3)[S@](=N)(=O)C)C4=C5C=CNC5=NC=C4 [AZD6738] (first compound max 1 µM, 7x7, partner max 10 µM)" numeric_result=0.029
compound="Cn1cnc2c(F)c(Nc3ccc(Br)cc3Cl)c(C(=O)NOCCO)cc21 [Selumetinib] + CCN(CCO)CCCOc1ccc2c(Nc3cc(CC(=O)Nc4cccc(F)c4)[nH]n3)ncnc2c1 [AZD2811] (first compound max 10 µM, 7x7, partner max 1 µM)" numeric_result=-0.0185
compound="NC1(C(=O)N[C@@H](CCO)c2ccc(Cl)cc2)CCN(c2ncnc3[nH]ccc23)CC1 [Capivasertib] + COc1nnc2ccc(N3CCC(c4ccc(OCCN5CCN(C)C(=O)[C@H]5C)cc4)CC3)nn12 [AZD5153] (first compound max 10 µM, 7x7, partner max 1 µM)" numeric_result=0.0049
compound="NC1(C(=O)N[C@@H](CCO)c2ccc(Cl)cc2)CCN(c2ncnc3[nH]ccc23)CC1 [Capivasertib] + CCN(CCO)CCCOc1ccc2c(Nc3cc(CC(=O)Nc4cccc(F)c4)[nH]n3)ncnc2c1 [AZD2811] (first compound max 10 µM, 7x7, partner max 1 µM)" numeric_result=-0.0017
compound="COc1cccc(OCCCN)c1-c1cc(Nc2cnc(C#N)cn2)n[nH]1 [Prexasertib] + C[C@@H]1COCCN1C2=NC(=NC(=C2)C3(CC3)[S@](=N)(=O)C)C4=C5C=CNC5=NC=C4 [AZD6738] (first compound max 1 µM, 7x7, partner max 10 µM)" numeric_result=-0.0001

====

Entries and their Bliss excess values follow.
- Tested on: AU565 (Breast Carcinoma)
- Test: Bliss excess, mean over the matrix (fraction); higher = more synergy
Measured quantity: Bliss excess

compound="CC1(C)CCC(CN2CCN(c3ccc(C(=O)NS(=O)(=O)c4ccc(NCC5CCOCC5)c([N+](=O)[O-])c4)c(Oc4cnc5[nH]ccc5c4)c3)CC2)=C(c2ccc(Cl)cc2)C1 [Venetoclax] + C[C@@H](Nc1cc(F)cc(F)c1)c1cc(C(=O)N(C)C)cc2c(=O)cc(N3CCOCC3)oc12 [AZD8186] (first compound max 1 µM, 7x7, partner max 3 µM)" measured_quantity="Bliss excess" result=-0.0033
compound="CC(=O)Nc1cccc(-n2c(=O)n(C3CC3)c(=O)c3c(Nc4ccc(I)cc4F)n(C)c(=O)c(C)c32)c1 [Trametinib] + Cc1nc(-c2cn3c(n2)-c2ccc(-c4cnn(C(C)(C)C(N)=O)c4)cc2OCC3)n(C(C)C)n1 [Taselisib] (first compound max 1 µM, 7x7, partner max 10 µM)" measured_quantity="Bliss excess" result=0.102
compound="COc1cccc2c1C(=O)c1c(O)c3c(c(O)c1C2=O)C[C@@](O)(C(=O)CO)C[C@@H]3O[C@H]1C[C@H](N)[C@H](O)[C@H](C)O1 [Doxorubicin] + Cc1cc2ncnn2cc1Nc1ncc2c(n1)n(C1CCOCC1)c(=O)n2C [AZD7648] (first compound max 1 µM, 7x7, partner max 10 µM)" measured_quantity="Bliss excess" result=0.0753
compound="Cn1cnc2c(F)c(Nc3ccc(Br)cc3Cl)c(C(=O)NOCCO)cc21 [Selumetinib] + C[C@@H]1COCCN1C2=NC(=NC(=C2)C3(CC3)[S@](=N)(=O)C)C4=C5C=CNC5=NC=C4 [AZD6738] (first compound max 10 µM, 7x7, partner max 10 µM)" measured_quantity="Bliss excess" result=-0.0014
compound="NC1(C(=O)N[C@@H](CCO)c2ccc(Cl)cc2)CCN(c2ncnc3[nH]ccc23)CC1 [Capivasertib] + CCN(CCO)CCCOc1ccc2c(Nc3cc(CC(=O)Nc4cccc(F)c4)[nH]n3)ncnc2c1 [AZD2811] (first compound max 10 µM, 7x7, partner max 1 µM)" measured_quantity="Bliss excess" result=-0.0229
compound="CCc1c2c(nc3ccc(O)cc13)-c1cc3c(c(=O)n1C2)COC(=O)[C@]3(O)CC [SN-38] + O=C(c1cc(Cc2n[nH]c(=O)c3ccccc23)ccc1F)N1CCN(C(=O)C2CC2)CC1 [Olaparib] (first compound max 0.3 µM, 7x7, partner max 10 µM)" measured_quantity="Bliss excess" result=0.0698
compound="CC(=O)c1c(C)c2cnc(Nc3ccc(N4CCNCC4)cn3)nc2n(C2CCCC2)c1=O [Palbociclib] + CC1(C)CCC(CN2CCN(c3ccc(C(=O)NS(=O)(=O)c4ccc(NCC5CCOCC5)c([N+](=O)[O-])c4)c(Oc4cnc5[nH]ccc5c4)c3)CC2)=C(c2ccc(Cl)cc2)C1 [Venetoclax] (first compound max 10 µM, 7x7, partner max 1 µM)" measured_quantity="Bliss excess" result=0.0161

Just for reference, the supplement of paper PMC11061612 is where these values come from.
